IC50, Human RET kinase (Homo sapiens (Human), UniProt P07949), per-entry values.
measurement-label: IC50

>>> test_result("CCOc1cc(=O)[nH]cc1-c1ccc(CC(=O)Nc2cc(C(=O)NCCN(C)C)cc(C(F)(F)F)c2)c(F)c1")
"≤ 10 nM"
>>> test_result("CCOc1cc(=O)[nH]cc1-c1ccc(CC(=O)Nc2cc(OCCN(C)C)cc(C(F)(F)F)c2)c(F)c1")
"≤ 10 nM"
